Target: recombinant human IL-31 (C108S), produced in E. coli by ZymoGenetics, MW 18 kDa (human), Q6EBC2
Assay: cell-based or functional assay
property-name: Average Potency (IC50), inhibition of hIL-31-induced proliferation of BAF-3(hIL-31R) cells (nM)
The reply should contain only the number, in nM.

Reference set, count: 3
humanized 292.12.3.1 construct clone 28 (12VH1-gly + HC(F29L, R71A, R94F) + LC(F71Y)) (antibody, human IgG4, V domains shown) VH: QVQLVQSGAEVKKPGASVKVSCKASGYTLTRYWMQWVRQAPGQGLEWMGAIYPGDGDTRYSQKFQGRVTMTADTSISTVYMELSSLRSEDTAVYYCAFPDGYYAAPYGMDYWGQGTLVTVSS VL: DIQMTQSPSSLSASVGDRVTITCRASGNIHNYLAWYQQKPGKVPKLLIYNAKTLADGVPSRFSGSGSGTDYTLTISSLQPEDVATYYCQHFWSTPWTFGQGTKVEIKR    26.4
humanized 292.12.3.1 construct clone 35 (12VH1-gly + HC(F29L, R94F)) (antibody, human IgG4, V domains shown) VH: QVQLVQSGAEVKKPGASVKVSCKASGYTLTRYWMQWVRQAPGQGLEWMGAIYPGDGDTRYSQKFQGRVTMTRDTSISTVYMELSSLRSEDTAVYYCAFPDGYYAAPYGMDYWGQGTLVTVSS VL: DIQMTQSPSSLSASVGDRVTITCRASGNIHNYLAWYQQKPGKVPKLLIYNAKTLADGVPSRFSGSGSGTDFTLTISSLQPEDVATYYCQHFWSTPWTFGQGTKVEIKR    62.1
humanized 292.12.3.1 construct clone 24 (12VH5-gly + HC(fback) + LC(G66R, G68E, F71Y)) (antibody, human IgG4, V domains shown) VH: EVQLVQSGAEVKKPGESLKISCKASGYTLTRYWMQWVRQMPGKGLEWMGAIYPGDGDTRYSPSFQGQVTLTADKSISTAYLQWSSLKASDTAMYYCAFPDGYYAAPYGMDYWGQGTTVTVSS VL: DIQMTQSPSSLSASVGDRVTITCRASGNIHNYLAWYQQKPGKVPKLLIYNAKTLADGVPSRFSGSRSETDYTLTISSLQPEDVATYYCQHFWSTPWTFGQGTKVEIKR    6

Now turn to the next binder.
Q. Param item = humanized 292.12.3.1 construct clone 21 (12VH5-gly + HC(G24A, S28T, F29L, R94F) + LC(fback)) (antibody, human IgG4, V domains shown) VH: EVQLVQSGAEVKKPGESLKISCKASGYTLTRYWMQWVRQMPGKGLEWMGAIYPGDGDTRYSPSFQGQVTISADKSISTAYLQWSSLKASDTAMYYCAFPDGYYAAPYGMDYWGQGTTVTVSS VL: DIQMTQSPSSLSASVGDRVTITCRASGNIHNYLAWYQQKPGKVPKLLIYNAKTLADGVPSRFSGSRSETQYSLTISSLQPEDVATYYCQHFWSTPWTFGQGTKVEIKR ; retrieve measured Average Potency (IC50), inhibition of hIL-31-induced proliferation of BAF-3(hIL-31R) cells.
A. 4.8

Origin of values: patent US20200262913A1
